Cited source: PubChem BioAssay

Assay: small-molecule microarray binders of probe aNog, primary screen, biochemical, biotinylated probe, 635/667 nm fluorescence (AID 1115);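 note: probe is biotinylated aNog protein used at 0.15 µg/mL for 1 h at 4 C; z-score combines 667 nm fluorescence of each spot with its signal to noise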
Conditions: higher = more signal
measurementKind: composite z-score
Answers are plain numbers.

In the examples that follow, each entry is paired with its recorded composite z-score.
# compound, composite z-score
data = [
    ("CC(C)C(O)C1C=CC2C(=O)N(C)C(=O)C2N1N(c1ccccc1)c1ccccc1 (configuration not stated)", 0.603),
    ("CC1CC/C=C\\[C@H]2OC34C=CCN(CCN5CCOCC5)C(=O)[C@H]3N(CCO)C(=O)[C@@H]4C2C(=O)O1 (some centres not stated)", -0.145),
    ("CC(=O)n1cc(C(O)C2C=CC3C(=O)N(c4ccccc4)C(=O)C3N2Nc2ccccc2)c2ccccc21 (configuration not stated)", 0.974),
]

List reported composite z-score for each of these compounds:
1. COc1cc2c(cc1O)C(C)N(Cc1cc3c(cc1Br)OCO3)CC2 (configuration not stated)
2. COc1ccc(NN2C(C(O)c3ccco3)C=CC3C(=O)N(C4CCCCC4)C(=O)C32)cc1 (configuration not stated)
3. C=CC[C@]12N=C(c3ccc(OCCCO)cc3)O[C@H]1c1ccccc1N(C)C2=O
4. CC(C)(C)OC(=O)CC[C@]1(C(=O)NCCN2CCOCC2)N=C(c2ccc(OCCCO)cc2)O[C@H]1c1ccccc1
5. COCCCNC(=O)[C@]1(Cc2ccccc2CN=[N+]=[N-])N=C(c2ccc(OCCCO)cc2)O[C@@H]1c1ccccc1
6. COc1ccccc1CN1C(=O)c2ccccc2[C@@H](C(=O)NC(C)C)[C@@H]1c1ccc(CO)cc1
7. CCCCC(CC)C(O)C1C=CC2C(=O)N(c3ccccc3)C(=O)C2N1Nc1ccc([N+](=O)[O-])cc1 (configuration not stated)

[-0.252, 0.353, 1.99, 0.593, -0.225, -0.637, -0.623]

List reported composite z-score for each of these compounds:
1. CN1C(=O)C2C=CC(C(O)C3CCCCC3)N(N3CCCCC3)C2C1=O (configuration not stated)
2. NCCCCCNC(=O)[C@@H]1C[C@@H]2C(=O)N[C@@H](CCCCN)C(=O)N2[C@@H]1c1cccc(OCCO)c1
3. CC(C)(C)OC(=O)CC[C@@]1(C(=O)O)N=C(c2ccc(OCCCO)cc2)O[C@@H]1c1ccccc1CN=[N+]=[N-]
4. C=C(COC)/C(=C/C[C@@H](OC(=O)c1ccncc1)c1cccc(OCCO)c1)c1cnc2ccccc2c1
5. Cc1c(NC(=O)/C(C#N)=C/C=C/c2ccccc2[N+](=O)[O-])c(=O)n(-c2ccccc2)n1C
6. COCCCNC(=O)[C@]1(CCC(=O)OC(C)(C)C)N=C(c2ccc(OCCCO)cc2)O[C@@H]1c1ccccc1
7. C[C@]1(C(=O)NC2CC2)c2ccccc2C(=O)N(Cc2ccc(OC(F)(F)F)cc2)[C@H]1c1ccc(CO)cc1

1: 1.31; 2: 0.628; 3: -0.1; 4: 0.581; 5: -0.527; 6: -0.0076; 7: 0.625

List reported composite z-score for each of these compounds:
1. O=C1NCC(=O)N2[C@@H]1C[C@@H](C(=O)O)[C@H]2c1ccc(O)cc1
2. COc1cc(CO)cc(I)c1O[C@H]1C=C(C(=O)NCCO)C[C@@H](N(Cc2ccc(F)cc2)C(=O)C2CCCO2)[C@@H]1O (some centres not stated)
3. C[C@]1(C(=O)O)c2ccccc2C(=O)N(Cc2ccccc2)[C@H]1c1ccc(CO)cc1
4. COCCOC(=O)N1C(=O)[C@@]2(c3ccccc31)[C@H](C(=O)N1CCN(c3ncccn3)CC1)[C@H]1C(=O)O[C@H](c3ccccc3)[C@H](c3ccccc3)N1[C@@H]2c1ccc(OCCO)cc1
5. CC(C)(C)OC(=O)CC[C@]1(C(=O)N2CCOCC2)N=C(c2ccc(OCCCO)cc2)O[C@H]1c1ccccc1
6. O=C(O)[C@H](Cc1ccccc1)n1cc(-c2ccccn2)nn1
7. CCOC(=O)C[C@H]1[C@H](OC(=O)c2ccc(C(=O)c3ccccc3)cc2)[C@@H](NC(=O)c2ccc3ccccc3c2)c2cc(OCCCO)ccc2N1C(=O)c1ccccc1
8. COc1ccc([Si](C)(C)[C@@H]2[C@@H](CCO)O[C@]3(C(=O)N(Cc4cccc(N5C(=O)c6ccccc6Oc6ccccc65)c4)c4ccccc43)[C@H]2C)cc1

1: -0.36; 2: -0.0312; 3: 0.562; 4: 0.612; 5: -0.375; 6: -0.0827; 7: 0.612; 8: -0.0641

List reported composite z-score for each of these compounds:
1. COc1ccccc1CN1C(=O)c2ccccc2[C@](Cc2ccccc2I)(C(=O)NC(C)C)[C@@H]1c1ccc(CO)cc1
2. Cc1ccc(S[C@]2(C(=O)NCC(F)(F)F)CC(=O)N(Cc3ccccc3)[C@@H]2c2ccc(CO)cc2)cc1

[-0.402, -0.186]
